- Tested on: Alopecurus myosuroides (ALOMY)
- Assay: Comparative experiment in pre-emergence
- Format: in vivo
- Settings: dosage 80 g/ha, 100% = plants have died, 0% = like control plants
Measurement Type: Herbicidal activity against ALOMY (%)
Express it in %; write the number only.

Reported Herbicidal activity against ALOMY for CCOC(=O)OC(C)OC(=Nc1nnc(C)o1)c1ccc(C(F)(F)F)c([S+](C)[O-])c1Cl (stereo not shown) [Compound No. 7-385] : what is it?
90

Reported Herbicidal activity against ALOMY for Cc1nnc(N(C(=O)c2ccc(C(F)(F)F)c([S+](C)[O-])c2Cl)C(C)OC(=O)OC2CCCCC2)o1 (stereo not shown) [Compound No. 3-385] : what is it?
100

Reported Herbicidal activity against ALOMY for CCOC(=O)OC(C)N(C(=O)c1ccc(C(F)(F)F)c(S(C)(=O)=O)c1C)c1nnc(C)o1 (stereo not shown) [Compound No. 1-145] : what is it?
100

Reported Herbicidal activity against ALOMY for Cc1nnc(N=C(OC(C)OC(=O)OC2CCCCC2)c2ccc(C(F)(F)F)c([S+](C)[O-])c2Cl)o1 (stereo not shown) [Compound No. 9-385] : what is it?
90
